Lab note: pIC50 readings collected with Histone deacetylase 3 (Homo sapiens, UniProt O15379) for the following compounds.
Sequence (O15379 whole entry): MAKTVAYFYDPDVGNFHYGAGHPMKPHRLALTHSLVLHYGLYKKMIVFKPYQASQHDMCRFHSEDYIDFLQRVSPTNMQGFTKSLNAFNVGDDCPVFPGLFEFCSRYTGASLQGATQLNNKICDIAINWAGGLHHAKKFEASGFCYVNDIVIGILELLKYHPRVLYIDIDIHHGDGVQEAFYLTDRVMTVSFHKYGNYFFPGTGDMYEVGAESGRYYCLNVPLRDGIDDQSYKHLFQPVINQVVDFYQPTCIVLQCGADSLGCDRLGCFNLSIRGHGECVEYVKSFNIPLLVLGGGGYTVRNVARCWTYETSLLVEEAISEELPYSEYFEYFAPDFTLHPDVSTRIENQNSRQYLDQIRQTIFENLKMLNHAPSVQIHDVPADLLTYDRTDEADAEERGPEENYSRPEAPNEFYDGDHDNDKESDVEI
Numbers only, as −log10 of the molar value.

In the examples that follow, each entry is paired with its recorded pIC50.
> print(dat)
                                 mol.smiles  test.value
1  CCCNNC(=O)CCCCCCNC(=O)[C@H](CC(C)C)NC(=O)[C@@H](O)[C@H](N)Cc1ccccc1        7.30
2  CCCNNC(=O)c1ccc(CNC(=O)[C@H](CC(C)C)NC(=O)[C@@H](O)[C@H](N)Cc2ccccc2)cc1.Cl        7.70
3  CC(C)C[C@H](NC(=O)[C@@H](O)[C@H](N)Cc1ccccc1)C(=O)NCc1ccc(C(=O)Nc2ccccc2N)cc1        7.22

stdin: Return the recorded pIC50 value; entry: `COC(=O)c1ccc(CNC(=O)[C@H](CC(C)C)NC(=O)[C@@H](O)[C@H](N)Cc2ccccc2)cc1.Cl`
stdout: 5.62

====

Exercise: for every item that follows, state its recorded pIC50.
Target: UniProt:P15145
Sequence (P15145 whole entry): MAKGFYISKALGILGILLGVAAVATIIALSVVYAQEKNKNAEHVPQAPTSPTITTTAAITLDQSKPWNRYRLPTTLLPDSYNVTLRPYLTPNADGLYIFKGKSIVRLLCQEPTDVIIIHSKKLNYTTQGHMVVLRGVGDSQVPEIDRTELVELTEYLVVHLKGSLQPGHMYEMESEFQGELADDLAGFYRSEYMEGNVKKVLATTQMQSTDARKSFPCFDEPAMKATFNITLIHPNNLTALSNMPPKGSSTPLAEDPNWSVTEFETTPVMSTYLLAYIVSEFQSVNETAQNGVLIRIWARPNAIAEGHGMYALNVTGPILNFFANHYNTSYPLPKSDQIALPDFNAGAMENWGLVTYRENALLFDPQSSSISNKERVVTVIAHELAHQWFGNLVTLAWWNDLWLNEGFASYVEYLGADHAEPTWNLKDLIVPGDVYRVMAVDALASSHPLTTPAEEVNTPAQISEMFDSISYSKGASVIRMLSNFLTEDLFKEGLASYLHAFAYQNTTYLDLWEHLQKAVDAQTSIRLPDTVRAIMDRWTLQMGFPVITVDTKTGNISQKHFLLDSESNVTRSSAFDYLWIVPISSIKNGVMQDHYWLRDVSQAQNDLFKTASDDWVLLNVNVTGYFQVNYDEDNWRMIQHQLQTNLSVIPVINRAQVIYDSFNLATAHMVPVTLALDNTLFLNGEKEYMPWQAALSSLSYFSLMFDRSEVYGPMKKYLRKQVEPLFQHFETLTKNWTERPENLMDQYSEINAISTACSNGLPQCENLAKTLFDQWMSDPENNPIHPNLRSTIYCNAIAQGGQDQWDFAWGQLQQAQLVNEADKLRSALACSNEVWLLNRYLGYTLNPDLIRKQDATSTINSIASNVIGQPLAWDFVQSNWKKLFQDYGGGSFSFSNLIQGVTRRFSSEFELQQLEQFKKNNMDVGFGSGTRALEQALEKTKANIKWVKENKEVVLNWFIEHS
Give bare numbers, as −log10 of the molar value.

Past entries and their recorded results:
> print(dat)
                                 mol.smiles  test.value
1  COC(=O)c1ccc(CNC(=O)[C@H](CC(C)C)NC(=O)[C@@H](O)[C@H](N)Cc2ccccc2)cc1.Cl        5.87
2  CCCNNC(=O)CCCCCNC(=O)[C@H](CC(C)C)NC(=O)[C@@H](O)[C@H](N)Cc1ccccc1        5.52

In the following, a different molecule is considered.
stdin: Assign pIC50 to the following record: `CCCNNC(=O)[C@H](CC(C)C)NC(=O)[C@@H](O)[C@H](N)Cc1ccccc1`
stdout: 4.74

Source listed as ChEMBL document CHEMBL5634092.
